# Test system: HOP-92
# assay_method_text: NCI tumour cell line growth inhibition, 48 h
Calls of active or inactive are those of the source. Cut-off read from the data, not from the text of the source: active = GI50 up to about 1.1 µM and inactive = higher.
I'd appreciate it if you could supply GI50 values for the items below.

Batch lookup, GI50 per entry.
1. CCOC(=O)C(Cc1cccn1C(=O)OC(C)(C)C)[N+](=O)[O-] (stereo unspecified)
2. N#Cc1c(O)c(/N=N/c2ccc(Cl)cc2)c(=O)n2c1[nH]c1ccccc12
3. CC(=O)c1cc2ccccc2oc1=O
4. NC1CC(=O)c2sccc21 (stereo unspecified)
5. c1cc2c3c(c1)c1cc4c(cc1c[n+]3CC2)OCO4 [ANHYDROLYCORINIUM CHLORIDE]
6. CCCCCCCCCCCCCCCCCCOCC(O)CO (stereo unspecified)

["28.2 µM (inactive)", "26.1 µM (inactive)", "48.8 µM (inactive)", "> 100 µM (inactive)", "25.3 µM (inactive)", "11.7 µM (inactive)"]

Provenance of the data: ChEMBL document CHEMBL1201862
